All values here come from patent US10994010B2.

# system.name: CD40L binding to Mac-1 I-domain (Homo sapiens)
# Construct: inserting the coding DNA for amino acids E^108 to L^261 in pHOG-21; His (N); trimerization domain (N); made in house
# Sequence (P29965 108-261): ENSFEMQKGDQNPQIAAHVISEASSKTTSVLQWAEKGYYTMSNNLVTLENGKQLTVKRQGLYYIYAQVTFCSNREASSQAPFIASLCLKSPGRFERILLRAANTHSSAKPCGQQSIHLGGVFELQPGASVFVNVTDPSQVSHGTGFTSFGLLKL
# experiment.description: Solid phase binding assay: blocking of CD40L binding to immobilized Mac-1 I-domain by peptides
# condition.label: concentration dependent
No end group written: not given here.
observation.type: IC50

* EQLKKSKTL [Peptide M7] | ~4 µM
